Target protein (sequence): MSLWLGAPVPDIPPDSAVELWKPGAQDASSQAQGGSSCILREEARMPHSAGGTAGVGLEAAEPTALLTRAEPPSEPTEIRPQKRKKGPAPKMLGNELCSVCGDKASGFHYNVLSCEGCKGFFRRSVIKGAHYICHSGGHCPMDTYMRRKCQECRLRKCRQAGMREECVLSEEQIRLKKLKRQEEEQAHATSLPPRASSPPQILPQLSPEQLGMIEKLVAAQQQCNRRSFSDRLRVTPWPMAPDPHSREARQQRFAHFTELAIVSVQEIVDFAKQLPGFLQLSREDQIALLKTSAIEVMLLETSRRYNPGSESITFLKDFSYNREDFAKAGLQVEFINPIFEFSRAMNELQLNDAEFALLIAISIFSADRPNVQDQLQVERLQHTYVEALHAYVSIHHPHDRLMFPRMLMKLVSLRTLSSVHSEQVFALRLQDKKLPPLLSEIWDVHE
Reported Metric: IC50 (nM)
Answers are plain numbers, in nM.

Task: So what does the record say about IC50 for CCS(=O)(=O)c1cccc(Oc2cccc(-c3c(C(C)C)nc4c(C(F)(F)F)ccnn34)c2)c1 ?
Result: 1090

Where do the numbers come from? From patent US20100331333A1.
